- Test system: MOLM-13 cells
- experimentSummary: Cell proliferation assay MOLM-13, method 2 (CellTiterGlo)
- Assay type: cell-based
- runConditions: Homo sapiens, MOLM-13, 72 h; acute myeloid leukaemia cells, 500 cells/well, 1536-well, 3-day incubation, CellTiterGlo ATP readout
Flag rule - IC50 less than 70 nM flags true; the remaining entries get false.

[
  {
    "querySmiles": "CCS(=O)(=O)c1ccc(Oc2ccccc2)c(Nc2ccc3c(n2)N(C2CCOCC2)[C@H](C)C(=O)N3C)c1",
    "assignedCategory": "false"
  },
  {
    "querySmiles": "CCS(=O)(=O)c1ccc(Oc2ccc(F)cc2)c(Nc2ccc3c(n2)N(C2CCN(C)CC2)[C@H](C)C(=O)N3C)c1",
    "assignedCategory": "true"
  },
  {
    "querySmiles": "C[C@@H]1C(=O)N(C)c2ccc(Nc3cccc(-c4ccc(C#N)cc4)c3)nc2N1C1CCOCC1",
    "assignedCategory": "false"
  }
]

In: Dear reviewer, please state whether `C[C@@H]1C(=O)N(C)c2ccc(Nc3cccc(N4CCN(C)CC4)c3)nc2N1C1CCOCC1` has IC50 strictly beneath 70 nM.
Out: false

In: Dear reviewer, please state whether `CC(C)S(=O)(=O)c1cccc(Nc2ccc3c(n2)N(C2CCN(CCC(F)(F)F)CC2)[C@H](C)C(=O)N3C)c1` has IC50 strictly beneath 70 nM.
Out: false

In: Dear reviewer, please state whether `CCS(=O)(=O)c1ccc(Oc2ccccc2)c(Nc2ccc3c(n2)N(C2CCN(C)CC2)[C@H](C)C(=O)N3C)c1` has IC50 strictly beneath 70 nM.
Out: true

In: Dear reviewer, please state whether `C=CCS(=O)(=O)c1ccc(OC)c(Nc2ccc3c(n2)N(C2CCN(C)CC2)[C@H](C)C(=O)N3C)c1` has IC50 strictly beneath 70 nM.
Out: true

----------
- targetSystem: BRD4 bromo domain 1 [BRD4(1)] (Homo sapiens)
- Construct: N-terminally His6-tagged BRD4(1) (amino acids 67-152)
- experimentSummary: BRD4(1)/acetylated peptide H4 TR-FRET binding assay
- runConditions: His6-BRD4(1) (aa 67-152) vs acetylated histone H4 peptide
Flag rule - IC50 less than 0.08 µM flags satisfied; the remaining entries get not satisfied.

Use the examples below as a reference point.
[
  {
    "querySmiles": "C[C@@H]1C(=O)N(C)c2ccc(Nc3cccc(C(F)(F)F)c3)nc2N1C1CCOCC1",
    "assignedCategory": "not satisfied"
  },
  {
    "querySmiles": "CC(C)S(=O)(=O)c1cccc(Nc2ccc3c(n2)N(C2CCN(C)CC2)[C@H](C)C(=O)N3C)c1",
    "assignedCategory": "satisfied"
  }
]

In: Dear reviewer, please state whether `COc1ccc(S(=O)(=O)C(C)C)cc1Nc1ccc2c(n1)N(C1CCN(C(=O)OC(C)(C)C)CC1)[C@H](C)C(=O)N2C` has IC50 strictly beneath 0.08 µM.
Out: not satisfied

In: Dear reviewer, please state whether `COc1ccc(S(=O)(=O)C(C)C)cc1Nc1ccc2c(n1)N(C1CCN(CC(F)F)CC1)[C@H](C)C(=O)N2C` has IC50 strictly beneath 0.08 µM.
Out: satisfied

In: Dear reviewer, please state whether `C[C@@H]1C(=O)N(C)c2ccc(Nc3cccc(S(C)(=O)=O)c3)nc2N1C1CCCCCC1` has IC50 strictly beneath 0.08 µM.
Out: not satisfied

In: Dear reviewer, please state whether `COc1ccc(S(=O)(=O)C2CCOCC2)cc1Nc1ccc2c(n1)N(C1CCOCC1)[C@H](C)C(=O)N2C` has IC50 strictly beneath 0.08 µM.
Out: satisfied

----------
- Test system: CHL-1 cells
- experimentSummary: Cell proliferation assay CHL-1 (alamarBlue)
- Assay type: cell-based
- runConditions: Homo sapiens, melanoma (BRAF wild-type) cells, 96 hours
recordedMetric: pIC50
# log scale: pIC50 equals minus log10 of the concentration in mol/L

[
  {
    "compound": "COc1ccc(S(=O)(=O)C(C)C)cc1Nc1ccc2c(n1)N(C1CCN(CC(F)(F)F)CC1)[C@H](C)C(=O)N2C",
    "pIC50": 7.60
  },
  {
    "compound": "COc1ccc(S(=O)(=O)C(C)C)cc1Nc1ccc2c(n1)N(C1CCNCC1)[C@H](C)C(=O)N2C",
    "pIC50": 7.66
  },
  {
    "compound": "CC1C(=O)N(C)c2ccc(Nc3cccc(S(C)(=O)=O)c3)nc2N1c1ccccc1 (centres unmarked)",
    "pIC50": 6.10
  },
  {
    "compound": "COc1ccc(S(C)(=O)=O)cc1Nc1ccc2c(n1)N(C1CCOCC1)[C@H](C)C(=O)N2C",
    "pIC50": 6.90
  },
  {
    "compound": "C[C@@H]1C(=O)N(C)c2ccc(Nc3cccc(S(C)(=O)=O)c3)nc2N1C1CCOCC1",
    "pIC50": 6.74
  },
  {
    "compound": "COc1ccc(S(C)(=O)=O)cc1Nc1ccc2c(n1)N(C(C)C)[C@H](C)C(=O)N2C",
    "pIC50": 6.93
  },
  {
    "compound": "COc1ccc(S(=O)(=O)C(C)C)cc1Nc1ccc2c(n1)N(C1CCOCC1)[C@H](C)C(=O)N2C",
    "pIC50": 7.72
  },
  {
    "compound": "COc1ccc(S(=O)(=O)C(C)C)cc1Nc1ccc2c(n1)N(C1CCN(C)CC1)[C@H](C)C(=O)N2C",
    "pIC50": 7.96
  },
  {
    "compound": "C[C@@H]1C(=O)N(C)c2ccc(Nc3cccc(S(C)(=O)=O)c3)nc2N1C1CCCCCC1",
    "pIC50": 6.43
  },
  {
    "compound": "COc1ccc(S(=O)(=O)C2CCOCC2)cc1Nc1ccc2c(n1)N(C1CCN(C)CC1)[C@H](C)C(=O)N2C",
    "pIC50": 7.68
  }
]

# context switch: different compound, same pIC50
In: // fetch pIC50 given entry `COc1ccc(S(=O)(=O)C2CC2)cc1Nc1ccc2c(n1)N(C(C)C)[C@H](C)C(=O)N2C`
Out: 7.28

----------
- targetSystem: BRD4 bromo domain 2 [BRD4(2)] (Homo sapiens)
- Construct: N-terminally His6-tagged BRD4(2) (amino acids 357-445)
- experimentSummary: BRD4(2)/acetylated peptide H4 TR-FRET binding assay
- runConditions: His6-BRD4(2) (aa 357-445) vs acetylated histone H4 peptide
Flag rule - IC50 less than 0.05 µM flags YES; the remaining entries get NO.

Use the examples below as a reference point.
[
  {
    "querySmiles": "COc1ccc(S(C)(=O)=O)cc1Nc1ccc2c(n1)N(C1CCOCC1)[C@H](C)C(=O)N2C",
    "targetSystem": "BRD4 bromo domain 2 [BRD4(2)] (Homo sapiens)",
    "assignedCategory": "NO"
  },
  {
    "querySmiles": "C[C@@H]1C(=O)N(C)c2ccc(Nc3ccc4c(c3)S(=O)(=O)CC4)nc2N1C1CCOCC1",
    "targetSystem": "BRD4 bromo domain 2 [BRD4(2)] (Homo sapiens)",
    "assignedCategory": "NO"
  }
]

In: Dear reviewer, please state whether `C[C@@H]1C(=O)N(C)c2ccc(Nc3cccc(S(=O)(=O)C4CC4)c3)nc2N1C1CCOCC1` has IC50 strictly beneath 0.05 µM.
Out: YES

In: Dear reviewer, please state whether `CC(C)S(=O)(=O)c1cccc(Nc2ccc3c(n2)N(C2CCN(C)CC2)[C@H](C)C(=O)N3C)c1` has IC50 strictly beneath 0.05 µM.
Out: YES

In: Dear reviewer, please state whether `COc1ccc(S(=O)(=O)C2CCOCC2)cc1Nc1ccc2c(n1)N(C1CCOCC1)[C@H](C)C(=O)N2C` has IC50 strictly beneath 0.05 µM.
Out: YES

In: Dear reviewer, please state whether `COc1ccc(S(C)(=O)=O)cc1Nc1ccc2c(n1)N(C1CCNCC1)[C@H](C)C(=O)N2C` has IC50 strictly beneath 0.05 µM.
Out: NO

In: Dear reviewer, please state whether `COc1ccc(S(=O)(=O)C(F)(F)F)cc1Nc1ccc2c(n1)N(C1CCOCC1)[C@H](C)C(=O)N2C` has IC50 strictly beneath 0.05 µM.
Out: NO

In: Dear reviewer, please state whether `COc1ccc(S(=O)(=O)C(C)C)cc1Nc1ccc2c(n1)N(C1CCN(CC(F)(F)F)CC1)[C@H](C)C(=O)N2C` has IC50 strictly beneath 0.05 µM.
Out: NO

----------
- targetSystem: BRD4 bromo domain 2 [BRD4(2)] (Homo sapiens)
- Construct: N-terminally His6-tagged BRD4(2) (amino acids 357-445)
- experimentSummary: BRD4(2)/acetylated peptide H4 TR-FRET binding assay
- runConditions: His6-BRD4(2) (aa 357-445) vs acetylated histone H4 peptide
recordedMetric: IC50 (nM)
Give the number; nM is assumed, so skip it.

[
  {
    "compound": "COc1ccc(S(=O)(=O)C2CCOCC2)cc1Nc1ccc2c(n1)N(C1CCN(C)CC1)[C@H](C)C(=O)N2C",
    "unitsOfMeasure": "nM",
    "IC50": 54
  },
  {
    "compound": "CC(C)S(=O)(=O)c1ccc(OC(F)(F)F)c(Nc2ccc3c(n2)N(C2CCN(C)CC2)[C@H](C)C(=O)N3C)c1",
    "unitsOfMeasure": "nM",
    "IC50": 65
  },
  {
    "compound": "CC1C(=O)N(C)c2ccc(Nc3cccc(S(C)(=O)=O)c3)nc2N1c1ccccc1 (centres unmarked)",
    "unitsOfMeasure": "nM",
    "IC50": 212
  }
]

In: // fetch IC50 given entry `CCS(=O)(=O)c1ccc(Oc2ccccc2)c(Nc2ccc3c(n2)N(C2CCN(C)CC2)[C@H](C)C(=O)N3C)c1`
Out: 51

In: // fetch IC50 given entry `COc1ccc(S(=O)(=O)C(C)C)cc1Nc1ccc2c(n1)N(C1CCN(C(=O)OC(C)(C)C)CC1)[C@H](C)C(=O)N2C`
Out: 78

In: // fetch IC50 given entry `COc1cc(Nc2ccc3c(n2)N(C2CCOCC2)[C@H](C)C(=O)N3C)cc(S(C)(=O)=O)c1`
Out: 94

In: // fetch IC50 given entry `C[C@@H]1C(=O)N(C)c2ccc(Nc3cccc(S(C)(=O)=O)c3)nc2N1C1CCN(C)CC1`
Out: 75

In: // fetch IC50 given entry `COc1ccc(S(C)(=O)=O)cc1Nc1ccc2c(n1)N(C(C)C)[C@H](C)C(=O)N2C`
Out: 76
